System: NCI-H522 lung
Test: NCI-60 one-dose screen, 48 h
Conditions: 10 µM unless noted
About 83,000 compounds went through this panel and 20% of them were active in at least one assay; those are over-represented in the sample as a whole. Activity calls are given as the source filed them. How the source made its calls: active means growth percent below 10; inactive means the rest.
Please state which outcome applies, choosing from active, inactive

// known answers, use as guide
- Molecule: "COc1cc(-c2nc(N3CCN(C)CC3)c3ccccc3n2)cc(OC)c1OC"
  Label: "active"
- Molecule: "COc1ccc(OC)c(-c2c(C#N)c(-c3ccc(Cl)cc3)nc3c2c(-c2ccccc2)nn3-c2ccccc2)c1"
  Label: "inactive"
- Molecule: "Cn1c(I)c(C#C[Si](C)(C)C)c(=O)n(C(=O)c2ccccc2)c1=O"
  Label: "active"

Q: Would you mind telling me which call this test gave O=C(c1ccccc1)N1N=C(c2ccccc2)CC1c1nnc2n(Cc3ccccc3)c(=O)c3c4c(sc3n12)CCCC4 (configuration not stated) ?
Ans: inactive

Q: Recorded test call requested for COc1ccc2nc(NNC(=O)c3cnccn3)c3cccn3c2c1
Ans: active

Q: Hi, do you know how COc1cccc(-c2nn(-c3ccccc3)cc2-c2ccnc(NCCNC(=O)Nc3ccc(Cl)c(Cl)c3)c2)c1 came out in this test?
Ans: active

Q: // param item: C[C@@]1(CCC#N)[C@H]2CC[C@@H]3[C@H]4[C@H](C(=O)/C=C/c5cccnc5)CC[C@]4(C#N)CC[C@@]3(C)[C@]2(C)CC[C@H]1C(=O)/C=C/c1cccnc1 ; yields the recorded call
Ans: inactive

---

System: RPMI-8226 leukemia
Assay: NCI-60 one-dose screen, 48 h (100 = growth as untreated, 0 = no growth, -100 = all killed)
Settings: 10 µM unless noted
Compounds without any hit were thinned out: in the full panel of roughly 83,000, 20% have a hit.
// reported growth for each item listed
Express the result in % but write the number alone.

In the examples that follow, each entry is paired with its recorded growth.
- Compound: "CCN(CC)c1nc(SCC(=O)Nc2nc3ccc(C)cc3s2)nc(-c2ccccc2)c1C#N"
  growth (%): 61.4
- Compound: "CC(=O)C(C)Cc1cc2c(cc1C)C(C)(C)CCC2(C)C (stereo unspecified)"
  growth (%): 100
- Compound: "Oc1ccc(CN2CCC(N3CCOCC3)CC2)c2cccnc12"
  growth (%): 7.8
- Compound: "Oc1c(CN2CCCC2)cc(COCc2ccc(Br)cc2)c2cccnc12"
  growth (%): 1
- Compound: "CCCCc1ccc(Nc2ccc(Nc3ccc(CCCC)cc3S(=O)(=O)O)c3c2C(=O)c2ccccc2C3=O)c(S(=O)(=O)O)c1"
  growth (%): 52

Then there is this compound:
Q: Need growth of COc1ccc2occ(C3=C(c4c[nH]c5ccccc45)C(=O)N(O)C3=O)c2c1 , thanks.
Ans: 66.7

---

Form field: growth (one value per entry).
Tested on: MDA-MB-231 breast
Assay: NCI-60 one-dose screen, 48 h (100 = growth as untreated, 0 = no growth, -100 = all killed)
Conditions: 10 µM unless noted
About 83,000 compounds went through this panel and 20% of them were active in at least one assay; those are over-represented in the sample as a whole.
Field format: number, assumed %, no unit text.

Before answering, review these 3 worked examples.
- Chemical structure: "Cc1ccc2[nH]c(=O)c3c(c2c1)OC(N)=C(C#N)C31c2cc(Br)ccc2-c2ccc(Br)cc21"
  Units text: "%"
  Observed value: 39.1
- Chemical structure: "Cc1ccc(/C=C2\\C(=O)N(C)c3ccc(S(=O)(=O)Nc4ccc(C(C)(C)C)cc4)cc32)s1"
  Units text: "%"
  Observed value: 21.2
- Chemical structure: "COc1cc(/C=C/C(=O)c2cccc(-n3cc(-c4ccccc4)[nH]c3=O)c2)ccc1O"
  Units text: "%"
  Observed value: 90.3

Q: For Cn1cc2c(c1)-c1nc(Nc3ccccc3)ncc1CC2 , what is its reported growth?
Ans: 67.4

Q: What does the data say about its growth? Entry: CC1=NOC(=O)/C1=C\c1ccc(O)cc1
Ans: 95.1

---

Test system: UACC-257 melanoma
Test: NCI-60 one-dose screen, 48 h (100 = growth as untreated, 0 = no growth, -100 = all killed)
Settings: 10 µM unless noted
The panel holds about 83,000 compounds, 20% with a hit somewhere; the sample as a whole holds those more often.
Value kind: growth (%)
Please respond with the number in % and leave the unit unwritten.

- Compound: "Cc1ccc(C2SCC(=O)N2Cc2ccccc2)cc1 (stereo unspecified)"
  Units text: "%"
  growth: 97.7
- Compound: "O=c1oc2ccccc2c(Cl)c1Cl"
  Units text: "%"
  growth: 40
- Compound: "NC1=NCc2nc3ccccc3c(=O)n2C1"
  Units text: "%"
  growth: 95.1
- Compound: "Cn1ccc2c(c1=O)C(=O)c1nccc3c1c-2nc1ccccc13"
  Units text: "%"
  growth: 108
- Compound: "O=C(Nc1ccc(-n2cc(-c3ccncc3)c(-c3ccc(Cl)c(O)c3)n2)cc1)N1CCOCC1"
  Units text: "%"
  growth: 109

Next item in the queue.
Q: Given the entry COc1cc(-c2nn(-c3ccccc3)cc2-c2ccnc(NCCNS(=O)(=O)c3ccc(Cl)cc3)n2)ccc1Cl , report its measured growth.
Ans: 34.8

---

System: NCI-H322M lung
Assay: NCI-60 one-dose screen, 48 h
Conditions: 10 µM unless noted
Compounds without any hit were thinned out: in the full panel of roughly 83,000, 20% have a hit. The source made the active and inactive calls. How the source made its calls: active means growth percent below 10; inactive means the rest.
Pick from active, inactive when you respond.

# count of solved cases: 4
- Compound: "O=C(O)C1CCC(=O)N1C(=O)OCc1ccccc1 (stereo unspecified)"
  Label: "inactive"
- Compound: "Cc1ccc(/C=C/c2c(C(=O)/C=C/c3ccc(C(F)(F)F)cc3)c(C)nc3ccccc23)cc1"
  Label: "active"
- Compound: "COc1cc(CCC[P+](c2ccccc2)(c2ccccc2)c2ccccc2)cc2c1OCO2"
  Label: "inactive"
- Compound: "O=C(CSc1nccc(Nc2ccc(S(=O)(=O)Nc3nccs3)cc2)n1)c1ccc(F)cc1"
  Label: "inactive"

Moving on to another compound below.
Q: Which outcome was assigned to COc1cc(-c2nc(N3CCN(C)CC3)c3ccccc3n2)cc(OC)c1OC in this test?
Ans: inactive

---

Tested on: HOP-92 NSCLC
Assay: NCI-60 one-dose screen, 48 h (100 = growth as untreated, 0 = no growth, -100 = all killed)
Settings: 10 µM unless noted
Compounds without any hit were thinned out: in the full panel of roughly 83,000, 20% have a hit.
Listing of recorded growth by entry.
I only need the number, in %, no unit after it.

Reference set, count: 5
- Compound: "C=CCn1c(C)nc2cc(Nc3nc(N4CCCC4)nc4ccccc34)ccc21"
  Units text: "%"
  Observed value: 81.3
- Compound: "N#Cc1nc2c(S(=O)(=O)c3ccc(Cl)cc3)c(N)n(Nc3cccc(Cl)c3)c2nc1C#N"
  Units text: "%"
  Observed value: -33.2
- Compound: "COC1=CC(=O)C[C@@H](C)[C@]12Oc1c(Cl)c(OC)cc(OC)c1C2=O"
  Units text: "%"
  Observed value: 89.4
- Compound: "O=C1/C(=C\\c2cccnc2)SC(=S)N1CCc1ccc(O)cc1"
  Units text: "%"
  Observed value: 27.4
- Compound: "Cc1ccc(CCC(=O)Nc2ncc(Cc3cc(Cl)ccc3Cl)s2)o1"
  Units text: "%"
  Observed value: 56.6

Next item in the queue.
Q: Please tell me: growth of O=C(N/N=C/c1ccncc1)c1ccc(C(F)(F)F)nc1Nc1cccc(C(F)(F)F)c1 , system HOP-92 NSCLC?
Ans: 3.81

---

Tested on: HS 578T breast
Experiment: NCI-60 one-dose screen, 48 h
Settings: 10 µM unless noted
Procedure: Growth inhibition of the HS 578T human tumor cell line is measured as a screen for anti-cancer activity. Cells are grown in 96 well plates and exposed to the test compound for 48 hours. Compounds are tested at a single concentration, which is 10^-5 M for most compounds. The reported endpoint is percent growth (GI% or GIPRCNT), where numbers from 0 - 100% represent growth inhibition, and numbers from -100% - 0 represent cell death. For example, a value of 40 represents 60% growth inhibition. […]
About 83,000 compounds went through this panel and 20% of them were active in at least one assay; those are over-represented in the sample as a whole. The source made the active and inactive calls. Rule for the calls: active = growth percent below 10; inactive = the rest.
In this exercise, the only acceptable responses are active, inactive

- Compound: "COc1ccc2cc(-c3cc(OC)c(OC)c(OC)c3)c(=O)oc2c1"
  Label: "inactive"
- Compound: "COc1ccc(/C=C/c2c(C(=O)/C=C/c3cccs3)c(C)nc3ccccc23)cc1"
  Label: "inactive"
- Compound: "Cc1ccc2nc(NC(=O)CSc3nc(-c4ccccc4)c(C#N)c(=O)n3Cc3ccccc3)sc2c1"
  Label: "inactive"

Q: So what was the verdict on Cc1cccc(-c2nc(N(C)c3ccc4ncsc4c3)c3ccccc3n2)n1 in this test?
Ans: inactive

Q: Check the results log: what was the call for COc1ccc(-c2cc(-c3cc(OC)ccc3OC)nc(SCC(=O)c3ccccc3)c2C#N)cc1 ?
Ans: inactive

Q: Tell me the assay call for CNC(=O)c1cc(Oc2cccc3nc(Nc4ccc(F)c(Cl)c4)ccc23)ccn1 please.
Ans: inactive

Q: Test call for this compound, please: Fc1c[c-]c(-c2ccccn2)c(F)c1.[CH3-].[Pt+2].c1ccc(P(C[PH+](c2ccccc2)c2ccccc2)c2ccccc2)cc1
Ans: active

Q: Just curious, what result did CCSC1=NC2C(N(CC)C(=O)N2CC)N1/N=C/C=C/c1ccccc1[N+](=O)[O-] (centres undefined) get here?
Ans: active

Q: I would be grateful if you could indicate the recorded call for CCOP(=O)(OCC)C1CP(=O)(c2ccccc2)CC(C)=C1Cl (centres undefined) .
Ans: inactive

Q: Please let me know the test result on file for COc1ccc(-c2csc(C3=C(O)CN(CCCN4CCCC4=O)C3=N)n2)cc1OC .
Ans: inactive

Q: Just curious, what result did C[C@@]1(CCC#N)[C@H]2CC[C@@H]3[C@H]4[C@H](C(=O)/C=C/c5cccnc5)CC[C@]4(C#N)CC[C@@]3(C)[C@]2(C)CC[C@H]1C(=O)/C=C/c1cccnc1 get here?
Ans: inactive
